# run-description: HepG2 liver cancer cell viability effects, profiling panel, resazurin fluorescence, 24 h, PK04 Diversity Set (AID 1172); also: test concentration not given here
# test-settings: higher = more signal
Returns one of 1 (yes) or 0 (no); 1 (yes) when z-score is >= 0.2.

The following molecules have reported results that may help.
NCCCCCCNC(=O)[C@H]1C[C@H]2C(=O)NCC(=O)N2[C@H]1c1cccc(OCCO)c1 ... 1 (yes)
COC(=O)[C@@]1(Cc2ccccc2)N=C(c2ccc(OCCCO)cc2)O[C@H]1c1ccccc1N=[N+]=[N-] ... 0 (no)
O=C(CS)NCCCCCCNC(=O)[C@H]1C[C@H]2C(=O)NCC(=O)N2[C@H]1c1ccc(O)cc1 ... 0 (no)
CC(C)(C)OC(=O)CC[C@]1(C(=O)N2CCCCC2)N=C(c2ccc(OCCCO)cc2)O[C@H]1c1ccccc1N=[N+]=[N-] ... 0 (no)
COCCOC(=O)N1C(=O)[C@@]2(c3ccccc31)[C@H](C(=O)Nc1nc3ccccc3s1)[C@H]1C(=O)O[C@H](c3ccccc3)[C@H](c3ccccc3)N1[C@@H]2c1ccc(OCCO)cc1 ... 1 (yes)

Could you please find out whether COc1ccc(C(O)C2C=CC3C(=O)NC(=O)C3N2Nc2ccccn2)cc1OCc1ccccc1 (stereo not drawn) has z-score that meets 0.2 or exceeds it?
0 (no)

Is the recorded value of z-score equal to or greater than 0.2 for this molecule? CCOC(=O)C1=CCC(C(C)(C)C)N(S(=O)(=O)c2ccc(C)cc2)C1 (stereo not drawn)
0 (no)

Quick check, z-score >= 0.2? O=C1N(CCS(=O)(=O)c2ccccc2)c2ccccc2C[C@@]12COC(c1ccc(OCCCO)cc1)=N2
0 (no)

* * *

# tested-on: Luciferin 4-monooxygenase (Photinus pyralis) (UniProt P08659)
# Sequence (P08659 whole entry, looked up): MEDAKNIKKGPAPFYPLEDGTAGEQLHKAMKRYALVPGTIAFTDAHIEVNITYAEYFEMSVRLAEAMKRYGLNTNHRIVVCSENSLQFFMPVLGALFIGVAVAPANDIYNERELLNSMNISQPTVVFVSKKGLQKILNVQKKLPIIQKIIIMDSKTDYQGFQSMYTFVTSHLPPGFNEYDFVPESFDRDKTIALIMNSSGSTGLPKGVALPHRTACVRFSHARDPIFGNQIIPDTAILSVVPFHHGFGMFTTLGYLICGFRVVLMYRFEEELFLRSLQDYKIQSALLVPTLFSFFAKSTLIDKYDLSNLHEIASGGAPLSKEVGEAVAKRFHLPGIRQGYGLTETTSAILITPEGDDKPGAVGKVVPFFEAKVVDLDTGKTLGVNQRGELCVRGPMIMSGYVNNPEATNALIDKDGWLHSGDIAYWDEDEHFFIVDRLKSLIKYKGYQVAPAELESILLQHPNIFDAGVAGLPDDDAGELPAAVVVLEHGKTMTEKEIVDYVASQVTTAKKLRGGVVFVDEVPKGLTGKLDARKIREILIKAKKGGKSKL
# run-description: firefly luciferase enzyme inhibitors, primary screen, biochemical, luminescence, purified enzyme, 2006 set (AID 1141);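 also: cell-free assay with purified firefly luciferase at 100 ng per well in PBS; test concentration not given here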
# test-settings: SteadyGlo luminescence, 30 min, higher = more signal, called active from +8 up or from −8 down
Tag: condition met if measured z-score is not below -0.3, condition not met if it is.

C=CCOC(=O)[C@@H]1[C@H]2C(=O)O[C@H](c3ccccc3)[C@H](c3ccccc3)N2[C@H](c2ccc(OCCOC(=O)[C@@H]3C[C@@H]4C(=O)NCC(=O)N4[C@@H]3c3cccc(OCCO)c3)cc2)[C@@]12C(=O)Nc1ccc(I)cc12 ... condition not met
NCCCCCCNC(=O)[C@H]1C[C@H]2C(=O)NCC(=O)N2[C@H]1c1cccc(OCCO)c1 ... condition not met
NCCCCCNC(=O)[C@H]1C[C@H]2C(=O)NCC(=O)N2[C@H]1c1cccc(OCCO)c1 ... condition met
CC(C)CNC(=O)[C@@H]1c2ccccc2C(=O)N(Cc2cc(C(F)(F)F)cc(C(F)(F)F)c2)[C@H]1c1ccc(CO)cc1 ... condition not met
CCOC(=O)[C@H]1C[C@H]2O[C@@]23C[C@H]1C(=O)N1CCCC1[C@@H]3O[Si](C)(C)C(C)(C)C (some centres not stated) ... condition met

Identify whether the reported z-score of the following compound is -0.3 or greater: O=C(CS)NCCCCCCNC(=O)[C@@H]1C[C@@H]2C(=O)N3CCC[C@H]3C(=O)N2[C@@H]1c1ccc(O)cc1
condition not met

Hi team, for O=C(CS)NCCCCCCNC(=O)[C@H]1C[C@H]2C(=O)N3CCC[C@H]3C(=O)N2[C@H]1c1cccc(OCCO)c1 , is the recorded z-score at or above -0.3?
condition met

* * *

Consider the following compounds; for each one, report its composite z-score.
# tested-on: Dickkopf-related protein 1 (Homo sapiens) (UniProt O94907)
# Sequence (O94907 whole entry, looked up): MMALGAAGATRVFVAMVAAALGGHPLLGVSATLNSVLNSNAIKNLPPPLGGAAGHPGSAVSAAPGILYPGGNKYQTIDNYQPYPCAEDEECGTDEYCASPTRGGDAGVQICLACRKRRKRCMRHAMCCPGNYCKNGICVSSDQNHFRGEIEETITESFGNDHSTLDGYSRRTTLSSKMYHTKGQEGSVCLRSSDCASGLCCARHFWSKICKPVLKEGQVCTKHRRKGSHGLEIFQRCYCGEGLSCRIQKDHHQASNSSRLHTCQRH
# run-description: DKK1 binders on small-molecule microarrays, primary screen, biochemical, small-molecule microarray, 635 nm fluorescence scan (AID 1106);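 also: score merges emission near 667 nm with signal to noise over three replicate slides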
# test-settings: DKK1 binding, higher = more signal
One number for each entry.

Would you please look over these solved cases?
N[C@@H](Cc1ccccc1)Cn1cc(-c2ccccc2)nn1 ... -0.328
Cc1ccc(S[C@]2(C(=O)NCc3ccccc3)CC(=O)N(Cc3ccccc3)[C@@H]2c2ccc(CO)cc2)cc1 ... -0.799
CC(C)(C)N1CC=CC23O[C@@H]4C=CCOC(=O)[C@@H]4[C@H]2C(=O)N(CCCCCO)[C@@H]3C1=O (some centres not stated) ... -0.499

For every item in the list below, what is its measured composite z-score?
1. CCOC(=O)C[C@H]1[C@H](OC(=O)c2ccc(-c3ccccc3)cc2)[C@@H](NC(=O)c2ccc3ccccc3c2)c2cc(OCCCO)ccc2N1C(=O)Cc1ccc(OC)cc1
2. O=C1C2C=CC(C(O)c3ccc(B(O)O)cc3)N(Nc3ccccc3)C2C(=O)N1c1ccccc1 (configuration not stated)
3. CCOC(=O)C[C@H]1[C@H](OC(=O)c2ccc(-c3ccccc3)cc2)[C@@H](NC(=O)Cc2ccc(OC)cc2)c2cc(OCCCO)ccc2N1C(=O)c1ccc2ccccc2n1
4. COc1ccc(C(O)C2C=CC3C(=O)N(c4ccccc4)C(=O)C3N2Nc2ccc([N+](=O)[O-])cc2)cc1OCc1ccccc1 (configuration not stated)

-0.416
-0.502
0.0289
-0.0143

* * *

# run-description: compound binding in COS7 lysate, probe aLAP1, primary screen, cell lysate, small-molecule microarray (AID 1124);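 also: lysate comes from COS7 cells expressing LAP1 and is applied at 0.3 µg/mL; score merges spot fluorescence near 667 nm with signal-to-noise over triplicate slides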
# test-settings: probe aLAP1, fluorescence, higher = more signal
Label rule, in plain words: composite z-score of 0.7 and up is yes, under 0.7 is no.

CC(=O)Nc1cc(Br)ccc1C(=O)O ... no
[N-]=[N+]=NCc1ccccc1[C@H]1OC(c2ccc(OCCCO)cc2)=N[C@@]1(CCS(=O)(=O)c1ccccc1)C(=O)N1CCOCC1 ... no
CCCNC(=O)[C@@H]1c2ccccc2C(=O)N(Cc2ccccc2)[C@H]1c1ccc(CO)cc1 ... no
O=C/C=C/c1ccc2c(c1)OCO2 ... yes

Consider the additional compound presented here.
Quick check, composite z-score >= 0.7? CCC[C@@H]1C=C(C(=O)O)[C@H](c2ccc(C)cc2)N1S(=O)(=O)c1ccc(C)cc1
yes

* * *

# run-description: E. coli DRC41 culture turbidity changes, primary screen, E. coli filamentation inducer project, strain DRC41, OD650, 48 h (AID 1152);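 also: E. coli MC1000 strain DRC41 lacking acrAB efflux pump and sulA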
# test-settings: E. coli DRC41 (acrAB sulA), higher = more signal, called active from +8 up or from −8 down
Give measured z-score for each item. Keep answers brief.
Give bare numbers.

Reference set (5 entries):
C=CCNC(=O)[C@@H]1[C@H]2C(=O)O[C@H](c3ccccc3)[C@H](c3ccccc3)N2[C@H](c2ccccc2OCCO)[C@@]12C(=O)Nc1ccc(C#CC3=CCCCC3)cc12 ... 1.51
CC(C)NC(=O)[C@@H]1c2ccccc2C(=O)N(Cc2ccccc2Cl)[C@H]1c1ccc(CO)cc1 ... 1.09
CCOC(=O)C1=CCC(c2ccc([N+](=O)[O-])cc2)N(S(=O)(=O)c2ccc(C)cc2)C1 (configuration not stated) ... -0.65
COc1ccc(CCNC(=O)[C@@]2(c3ccc([N+](=O)[O-])cc3)CC(=O)N(CC34CC5CC(CC(C5)C3)C4)[C@@H]2c2ccc(CO)cc2)cc1 ... 0.0305
Cc1ccc(S[C@]2(C(=O)NC3CC3)CC(=O)N(C3CCCCC3)[C@@H]2c2ccc(CO)cc2I)cc1 ... 0.639

Each compound below has a reported value. Please supply its z-score.
1. O=C1OCC=C[C@H]2OC34C=CCN(c5ccc(Cl)cc5)C(=O)[C@H]3N(CCCCCCO)C(=O)[C@@H]4[C@@H]12 (some centres not stated)
2. COC(=O)c1ccc(C(O)C2C=CC3C(=O)N(c4ccccc4)C(=O)C3N2Nc2ccc(C#N)cc2)o1 (configuration not stated)
3. CC(C)C[C@@H]1NC(=O)[C@H]2C[C@@H](C(=O)NCCCCCNC(=O)CS)[C@@H](c3cccc(OCCO)c3)N2C1=O
4. [N-]=[N+]=NCc1ccccc1C[C@]1(C(=O)NCCN2CCOCC2)N=C(c2ccc(OCCCO)cc2)O[C@H]1c1ccccc1N=[N+]=[N-]
5. O=C1N(CCS(=O)(=O)c2ccccc2)Cc2ccccc2[C@H]2OC(c3ccc(OCCCO)cc3)=N[C@@]12CCS(=O)(=O)c1ccccc1

1: 0.49; 2: -0.855; 3: -0.586; 4: 0.991; 5: -0.0143

The following compounds each have a reported value; give each one's z-score.
1. NC(=O)NCC#Cc1ccc2c(c1)[C@]1(C(=O)N2)[C@H](C(=O)NC[C@H](O)c2ccccc2)[C@H]2C(=O)O[C@H](c3ccccc3)[C@H](c3ccccc3)N2[C@@H]1c1ccc(O)cc1
2. COc1ccc(C(O)C2C=CC3C(=O)NC(=O)C3N2Nc2ccccn2)cc1OCc1ccccc1 (configuration not stated)
3. CC(C)N1C(=O)[C@@]2(c3ccc([N+](=O)[O-])cc3)CC(=O)N(CC34CC5CC(CC(C5)C3)C4)[C@@H]2c2ccc(CO)cc21
4. Cc1ccc(S[C@]2(C(=O)NCC(C)C)CC(=O)N(Cc3ccccc3)[C@@H]2c2ccc(CO)cc2I)cc1
5. COCCOC(=O)N1C(=O)[C@@]2(c3ccccc31)[C@H](C(=O)NC[C@H](O)c1ccccc1)[C@H]1C(=O)O[C@H](c3ccccc3)[C@H](c3ccccc3)N1[C@@H]2c1ccc(OCCO)cc1
6. COc1ccc(C#Cc2ccc3c(c2)[C@]2(C(=O)N3)[C@H](C(=O)NC[C@H](O)c3ccccc3)[C@H]3C(=O)O[C@H](c4ccccc4)[C@H](c4ccccc4)N3[C@@H]2c2ccc(OCCO)cc2)cc1
7. Cc1ccc(S[C@]2(C(=O)NCCN3CCOCC3)CC(=O)N(Cc3cc(C(F)(F)F)cc(C(F)(F)F)c3)[C@@H]2c2ccc(CO)cc2I)cc1
8. C=CCNC(=O)[C@@H]1[C@H]2C(=O)O[C@H](c3ccccc3)[C@H](c3ccccc3)N2[C@H](c2ccc(OCCO)cc2)[C@@]12C(=O)Nc1ccccc12

1: -0.765; 2: -0.325; 3: 0.0258; 4: -0.668; 5: 1.32; 6: -0.877; 7: 0.288; 8: 1.52
